# target system: HCV NS5B RdRp genotype 1b (Hepatitis C virus genotype 1b, UniProt Q9WMX2)
# Construct: The protein was expressed with an 18 amino acid C-terminal truncation to enhance the solubility; made in house; host or cells: E. coli BL21(DE3), pET21a vector
# Sequence (Q9WMX2 2420-2992): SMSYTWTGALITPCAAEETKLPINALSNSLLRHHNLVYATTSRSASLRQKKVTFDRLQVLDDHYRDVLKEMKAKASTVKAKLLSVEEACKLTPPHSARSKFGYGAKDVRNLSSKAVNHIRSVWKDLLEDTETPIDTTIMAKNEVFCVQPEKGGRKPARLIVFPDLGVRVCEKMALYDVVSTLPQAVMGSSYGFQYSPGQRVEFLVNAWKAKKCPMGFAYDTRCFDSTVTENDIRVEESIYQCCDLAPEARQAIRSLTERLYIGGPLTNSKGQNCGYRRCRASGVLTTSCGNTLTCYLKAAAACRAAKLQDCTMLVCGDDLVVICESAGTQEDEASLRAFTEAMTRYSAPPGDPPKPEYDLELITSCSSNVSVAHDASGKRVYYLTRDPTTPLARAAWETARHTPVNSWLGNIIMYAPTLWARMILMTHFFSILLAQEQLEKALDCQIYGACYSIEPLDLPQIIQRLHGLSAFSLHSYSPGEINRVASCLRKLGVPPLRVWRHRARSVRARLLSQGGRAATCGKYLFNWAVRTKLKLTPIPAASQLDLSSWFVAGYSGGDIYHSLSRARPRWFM
# protocol details: HCV NS5B RdRp enzyme assay (standard / modified)
# Type: biochemical
# assay context: Table 1; HCV NS5B genotype 1b
Exercise: for every item that follows, state its recorded IC50.

1) CNC(=O)c1c(-c2ccc(F)cc2)nn2cc(N(CCO)S(C)(=O)=O)ccc12 : > 10000 nM
2) CCOc1ccccc1-c1ccc2c(C(=O)NC)c(-c3ccc(F)cc3)nn2c1 : > 10000 nM
3) CNC(=O)c1c(-c2ccc(F)cc2)nn2cc(NC(=O)C(F)(F)F)ccc12 : > 10000 nM

Batch of 7 compounds: report IC50 for each.
1. CNC(=O)c1c(-c2ccc(F)cc2)nn2ccc(NCc3ccccc3)cc12
2. CNC(=O)c1c(-c2ccc(F)cc2)nc2ccc(-c3cccc(C(=O)O)c3)cn12
3. CNC(=O)c1c(-c2ccc(F)cc2)nc2cc(C)c(-c3cc(C(=O)NC(C)(C)c4ccccc4)ccc3C)cn12
4. CNC(=O)c1c(-c2ccc(F)cc2)nn2ccc(-c3cc(C(=O)NC4(c5ccccc5)CC4)c(OC)cc3C)c(F)c12 [drawing 134]
5. CNC(=O)c1c(-c2ccc(F)cc2)nn2ccc(NC(=O)c3cccc(OC)c3)cc12
6. CNC(=O)c1c(-c2ccc(F)cc2)nn2cc(NC(=O)C(C)(C)C)c(C3CC3)cc12
7. CNC(=O)c1c(-c2ccc(F)cc2)nn2ccc(NS(=O)(=O)c3ccc(OC(F)(F)F)cc3)cc12

["> 10000 nM", "> 10000 nM", "2 to 250 nM", "2 to 250 nM", "> 10000 nM", "> 10000 nM", "> 10000 nM"]

Would you mind listing IC50 for each of the following compounds?
1. CNC(=O)c1c(-c2ccc(F)cc2)nc2ccc(-c3cccc(C(=O)NC(C)(C)C)c3)cn12 [drawing 77]
2. CCN(c1cn2nc(-c3ccc(F)cc3)c(C(=O)NC)c2cc1C1CCCCC1)S(C)(=O)=O
3. CNC(=O)c1c(-c2ccc(F)cc2)nn2c(F)cc(-c3cc(C(=O)NC4(c5ccccc5)CC4)ccc3C)cc12
4. CNC(=O)c1c(-c2ccc(F)cc2)oc2ncc(-c3cc(C(=O)NC4(c5ccccn5)CC4)ccc3Cl)cc12 [drawing 113]
5. CNC(=O)c1c(-c2ccc(F)cc2)nn2ccc(-c3cc(C(=O)NC4(c5cccc(F)c5)CC4)c(OC)cc3C)c(F)c12
6. CNC(=O)c1c(-c2ccc(F)cc2)nn2ccc(-n3cc(C(=O)NC(C)(C)c4ccccc4)ccc3=O)cc12
7. CNC(=O)c1c(-c2ccc(F)cc2)nn2ccc(-c3cccc(C(=O)NC4(c5ccccc5)CC4)c3)cc12

1. 250 to 1000 nM
2. 1000 to 10000 nM
3. 2 to 250 nM
4. 2 to 250 nM
5. 2 to 250 nM
6. 2 to 250 nM
7. 2 to 250 nM

Where do the numbers come from? From patent US8293909B2.
